Field: Purity (%). Provide a value for each of the molecules that follow.
Test: Influencing factor stability study on crystal forms (light, high temperature, high humidity, 30 days)
Type: physicochemical
Settings: 40 °C, 30 days
Answers are plain numbers, in %.

Look at each molecule and report its Purity (%).
1. C=CC(=O)N1CCN2C(=O)c3cc(F)c(-c4ccc(F)c5sc(N)c(C#N)c45)c4c(Cl)nn(c34)CC[C@H]2C1 [crystal form H]
2. C=CC(=O)N1CCN2C(=O)c3cc(F)c(-c4ccc(F)c5sc(N)c(C#N)c45)c4c(Cl)nn(c34)CC[C@H]2C1 [crystal form G]
3. C=CC(=O)N1CCN2C(=O)c3cc(F)c(-c4ccc(F)c5sc(N)c(C#N)c45)c4c(Cl)nn(c34)CC[C@H]2C1 [crystal form F]
4. C=CC(=O)N1CCN2C(=O)c3cc(F)c(-c4ccc(F)c5sc(N)c(C#N)c45)c4c(Cl)nn(c34)CC[C@H]2C1 [crystal form L]
5. C=CC(=O)N1CCN2C(=O)c3cc(F)c(-c4ccc(F)c5sc(N)c(C#N)c45)c4c(Cl)nn(c34)CC[C@H]2C1 [crystal form C]

1: 97.7; 2: 97.7; 3: 96.7; 4: 98.9; 5: 97.2

Please fill in: Purity (%) reported for C=CC(=O)N1CCN2C(=O)c3cc(F)c(-c4ccc(F)c5sc(N)c(C#N)c45)c4c(Cl)nn(c34)CC[C@H]2C1 [crystal form M] = 98.9
